The measured values listed here are drawn from PubChem BioAssay.

Assay: E. coli acrAB mutant growth effects, primary screen, E. coli filamentation inducers, strain DRC39, OD650, 24 h (AID 1178);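 further: growth measured as culture turbidity by optical density at 650 nm; test concentration not given here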
Settings: higher = more signal, called active from +8 up or from −8 down

>  <compound>
CCCC=C(CCC)[C@@H](NC(=O)c1ccc(C(=O)OC)cc1)c1ccc(C(=O)OC)cc1

>  <z-score>
-1.1

$$$$
>  <compound>
C=CCOC(=O)[C@@H]1[C@H]2C(=O)O[C@H](c3ccccc3)[C@H](c3ccccc3)N2[C@H](c2ccc(OCCOC(=O)[C@@H]3C[C@@H]4C(=O)N[C@@H](CC(C)C)C(=O)N4[C@@H]3c3ccc(O)cc3)cc2)[C@@]12C(=O)Nc1ccc(I)cc12

>  <z-score>
0.703

$$$$
>  <compound>
COCCCNC(=O)[C@@]1(Cc2ccccc2I)c2ccccc2C(=O)N(Cc2ccccc2C(F)(F)F)[C@H]1c1ccc(CO)cc1

>  <z-score>
0.309

$$$$
>  <compound>
C=CCNC(=O)[C@H]1[C@@H]2C(=O)O[C@@H](c3ccccc3)[C@@H](c3ccccc3)N2[C@@H](c2ccc(OCCO)cc2)[C@]12C(=O)N(C(=O)OCCOC)c1ccc(C#CCC(C(=O)OC)C(=O)OC)cc12

>  <z-score>
0.321

$$$$
>  <compound>
C=CCN1C(=O)[C@]2(O[C@H](CCO)[C@@H]([Si](C)(C)c3ccc(OC)cc3)[C@@H]2C)c2cc(N3C(=O)c4ccccc4Oc4ccccc43)ccc21

>  <z-score>
0.229

$$$$
>  <compound>
CCOC(=O)C1=C[C@@H](C(C)(C)C)N(S(=O)(=O)c2ccc(C)cc2)[C@H]1c1ccc(OC)cc1

>  <z-score>
0.33

$$$$
>  <compound>
C=CCNC(=O)[C@H]1[C@@H]2C(=O)O[C@@H](c3ccccc3)[C@@H](c3ccccc3)N2[C@@H](c2ccc(O)cc2)[C@]12C(=O)Nc1ccc(C#CCC(C(=O)OC)C(=O)OC)cc12

>  <z-score>
-0.254

$$$$
>  <compound>
COC(=O)C1=CC(c2ccc(CO)cc2)=CC(C2CC2)N(Cc2cc3c(cc2Br)OCO3)C=C1C(=O)OC (configuration not stated)

>  <z-score>
0.164

$$$$
>  <compound>
CCOC(=O)C[C@H]1[C@H](OC(=O)c2ccccc2-c2ccccc2)[C@@H](NC(=O)CC(C)C)c2cc(OCCCO)ccc2N1C(=O)c1ccccc1

>  <z-score>
1.51

$$$$
>  <compound>
C=CCC(OC(C)=O)[C@@H]1[C@@H](N(Cc2cccc3ccccc23)C(=O)c2ccc(C)cc2)c2cc(OCCCO)ccc2N1C(=O)Cc1ccc2ccccc2c1 (some centres not stated)

>  <z-score>
0.72

$$$$
>  <compound>
COc1ccc(C(=O)Nc2ccc(CN3C(=O)[C@@]4(O[C@@H](CC(=O)N(CCO)Cc5ccccc5)[C@H]([Si](C)(C)c5ccc(OC)cc5)[C@H]4C)c4ccccc43)cc2)cc1

>  <z-score>
0.7

$$$$
>  <compound>
COc1cc2c(cc1OC)CN(C(=O)[C@@H]1[C@H]3C(=O)O[C@H](c4ccccc4)[C@H](c4ccccc4)N3[C@H](c3ccc(O)cc3)[C@@]13C(=O)Nc1ccc(C#CC4=CCCCC4)cc13)CC2

>  <z-score>
-0.0342

$$$$
